All figures here come from the supplement of paper PMC9254222.

Tested on: HEK293T (UBE3A T485A transfected, BAR Wnt reporter)
Assay notes: Wnt reporter firefly/Renilla luciferase ratio relative to plate median (fold (linear ratio)); higher = more Wnt/beta-catenin reporter activation
Experimental setup: concentration: 10 uM; 24 h
In all, about 1,100 compounds were measured (“Wnt reporter firefly/Renilla luciferase ratio relative to plate median”: median about 1.1, highest 2% from about 1.6 on). Many of the other results were omitted from the sample, so the highest values are more common in it than they were.
Metric name: Wnt reporter firefly/Renilla luciferase ratio

compound=O=[N+]([O-])c1ccc(Oc2ccc(Cl)cc2Cl)cc1 target_desc="HEK293T (UBE3A T485A transfected, BAR Wnt reporter)" observed_measurement=1.01
compound=COP(=S)(OC)SCN1C(=O)c2ccccc2C1=O target_desc="HEK293T (UBE3A T485A transfected, BAR Wnt reporter)" observed_measurement=1.47
compound="CNC(=O)CSP(=S)(OC)OC [Dimethoate]" target_desc="HEK293T (UBE3A T485A transfected, BAR Wnt reporter)" observed_measurement=1.02
compound=CCN(CC)CCO target_desc="HEK293T (UBE3A T485A transfected, BAR Wnt reporter)" observed_measurement=0.956
compound="COC(=O)C(C)Oc1ccc(Oc2ccc(Cl)cc2Cl)cc1 (stereo unspecified)" target_desc="HEK293T (UBE3A T485A transfected, BAR Wnt reporter)" observed_measurement=1.27
compound="CC(Oc1ccc(Cl)cc1Cl)C(=O)O (stereo unspecified)" target_desc="HEK293T (UBE3A T485A transfected, BAR Wnt reporter)" observed_measurement=1.24

* * *

Tested on: HEK293T (UBE3A T485A transfected, BAR Wnt reporter)
Assay notes: Wnt reporter firefly/Renilla luciferase ratio relative to plate median (fold (linear ratio)); higher = more Wnt/beta-catenin reporter activation
Experimental setup: concentration: 10 uM; 24 h
The full ranking holds about 1,100 compounds; the median of “Wnt reporter firefly/Renilla luciferase ratio relative to plate median” is about 1.1, and the highest 2% start at about 1.6. What follows is part of a selection rich in the highest values, with near analogues and random picks from the rest.
Metric name: Wnt reporter firefly/Renilla luciferase ratio

compound=Cc1cc(N=Nc2ccccc2C)ccc1N observed_measurement=1.06
compound=Clc1nc(Cl)nc(Nc2ccccc2Cl)n1 observed_measurement=1.18
compound=O=C(O)C(F)(F)C(F)(F)C(F)(F)C(F)(F)C(F)(F)C(F)(F)C(F)(F)C(F)(F)C(F)(F)C(F)(F)F observed_measurement=0.954
compound=CCNC(=O)NC(=O)/C(C#N)=N/OC observed_measurement=1.29
compound=Cc1ccc(N)c(N)c1 observed_measurement=1.2
compound=O=C(O)C(F)(F)C(F)(F)C(F)(F)C(F)(F)C(F)(F)F observed_measurement=1.38
compound=Cn1sc(Cl)cc1=O observed_measurement=1.07
compound="Clc1ccc(C(c2ccccc2Cl)C(Cl)(Cl)Cl)cc1 (stereo unspecified)" observed_measurement=0.978
compound=CCOc1cc(Oc2ccc(C(F)(F)F)cc2Cl)ccc1[N+](=O)[O-] observed_measurement=1.07
compound=CCNc1nc(Cl)nc(NCC)n1 observed_measurement=1.06
compound=CCCCc1ccccc1 observed_measurement=1.01
compound=COc1ccc(C(c2ccc(OC)cc2)C(Cl)(Cl)Cl)cc1 observed_measurement=1.25
compound=Nc1ccc(-c2ccc(N)cc2)cc1 observed_measurement=1.23
compound=N#Cc1cc(Br)c(O)c(Br)c1 observed_measurement=0.998
compound=O=[N+]([O-])c1ccc(Cl)cc1 observed_measurement=1.02
compound=CCOP(=S)(OCC)Oc1cc(C)nc(C(C)C)n1 observed_measurement=1.25
compound="CCOCCOC(C)=O [2-Ethoxyethyl acetate]" observed_measurement=1.18
compound="CCCC(=NOCC)C1=C(O)CC(CC(C)SCC)CC1=O (stereo unspecified)" observed_measurement=1.2
compound=O=[N+]([O-])c1ccc(Cl)c(Cl)c1 observed_measurement=1.29
compound=O=C(O)C(F)(F)C(F)(F)C(F)(F)C(F)(F)C(F)(F)C(F)(F)C(F)(F)F observed_measurement=1.41
compound=C[n+]1ccc(-c2cc[n+](C)cc2)cc1 observed_measurement=1.01
